Each recorded value in this set is attributed to the Human Domainome abundance scans (Beltran et al. 2025).

Readings of abundance fitness for the listed variants
B1: Chromodomain-helicase-DNA-binding protein 5, residues 338 to 390; numbered along this chain, Q8TDI0 (parent)
chain: YETDHQDYCEVCQQGGEIILCDTCPRAYHLVCLDPELEKAPEGKWSCPHCEKE

Variants of: B1
Assay: abundance fitness (aPCA) (normalised: wild type 0, dead -1); higher = more abundant; growth selection in yeast, the domain comes from the species named
Conditions: Homo sapiens
Test Readout: abundance fitness

{"Mutation Id": "I18Y", "Test Readout": "abundance fitness", "Meas Value": 0.145}
{"Mutation Id": "V31I", "Test Readout": "abundance fitness", "Meas Value": -0.205}
{"Mutation Id": "T23A", "Test Readout": "abundance fitness", "Meas Value": -0.545}
{"Mutation Id": "L30E", "Test Readout": "abundance fitness", "Meas Value": 0.059}
{"Mutation Id": "R26C", "Test Readout": "abundance fitness", "Meas Value": 0.012}
{"Mutation Id": "C24Y", "Test Readout": "abundance fitness", "Meas Value": -0.784}
{"Mutation Id": "C50P", "Test Readout": "abundance fitness", "Meas Value": -0.499}
{"Mutation Id": "I19D", "Test Readout": "abundance fitness", "Meas Value": -0.023}
{"Mutation Id": "C24N", "Test Readout": "abundance fitness", "Meas Value": -1.15}
{"Mutation Id": "E36G", "Test Readout": "abundance fitness", "Meas Value": 0.014}
{"Mutation Id": "I18C", "Test Readout": "abundance fitness", "Meas Value": -0.508}
{"Mutation Id": "D22K", "Test Readout": "abundance fitness", "Meas Value": -0.171}
{"Mutation Id": "V31H", "Test Readout": "abundance fitness", "Meas Value": 0.018}
{"Mutation Id": "V31D", "Test Readout": "abundance fitness", "Meas Value": -0.157}
{"Mutation Id": "C50T", "Test Readout": "abundance fitness", "Meas Value": -0.409}
{"Mutation Id": "H49D", "Test Readout": "abundance fitness", "Meas Value": 0.422}
{"Mutation Id": "D22F", "Test Readout": "abundance fitness", "Meas Value": -0.597}
{"Mutation Id": "D22C", "Test Readout": "abundance fitness", "Meas Value": -0.432}
{"Mutation Id": "A27K", "Test Readout": "abundance fitness", "Meas Value": -0.242}
{"Mutation Id": "C21Y", "Test Readout": "abundance fitness", "Meas Value": -0.739}
{"Mutation Id": "K52Q", "Test Readout": "abundance fitness", "Meas Value": -0.482}
{"Mutation Id": "E38A", "Test Readout": "abundance fitness", "Meas Value": -0.024}
{"Mutation Id": "L20P", "Test Readout": "abundance fitness", "Meas Value": 0.234}
{"Mutation Id": "T23W", "Test Readout": "abundance fitness", "Meas Value": -0.443}
{"Mutation Id": "G43E", "Test Readout": "abundance fitness", "Meas Value": 0.029}
{"Mutation Id": "G43C", "Test Readout": "abundance fitness", "Meas Value": -0.117}
{"Mutation Id": "C21I", "Test Readout": "abundance fitness", "Meas Value": -0.912}
{"Mutation Id": "C32E", "Test Readout": "abundance fitness", "Meas Value": -0.52}
{"Mutation Id": "C50L", "Test Readout": "abundance fitness", "Meas Value": -0.575}
{"Mutation Id": "E17R", "Test Readout": "abundance fitness", "Meas Value": -0.189}
{"Mutation Id": "D22P", "Test Readout": "abundance fitness", "Meas Value": 0.111}
{"Mutation Id": "E51Y", "Test Readout": "abundance fitness", "Meas Value": -0.207}
{"Mutation Id": "C21G", "Test Readout": "abundance fitness", "Meas Value": -0.853}
{"Mutation Id": "V31Q", "Test Readout": "abundance fitness", "Meas Value": -0.315}
{"Mutation Id": "C21E", "Test Readout": "abundance fitness", "Meas Value": -1.08}
{"Mutation Id": "D22N", "Test Readout": "abundance fitness", "Meas Value": -0.015}
{"Mutation Id": "K52M", "Test Readout": "abundance fitness", "Meas Value": 0.083}
{"Mutation Id": "L20V", "Test Readout": "abundance fitness", "Meas Value": 0.051}
{"Mutation Id": "D22E", "Test Readout": "abundance fitness", "Meas Value": -0.101}
{"Mutation Id": "S46R", "Test Readout": "abundance fitness", "Meas Value": -0.143}
{"Mutation Id": "E53L", "Test Readout": "abundance fitness", "Meas Value": 0.022}
{"Mutation Id": "P25E", "Test Readout": "abundance fitness", "Meas Value": -0.287}
{"Mutation Id": "A27C", "Test Readout": "abundance fitness", "Meas Value": -0.093}
{"Mutation Id": "I18W", "Test Readout": "abundance fitness", "Meas Value": -0.02}
{"Mutation Id": "I19V", "Test Readout": "abundance fitness", "Meas Value": -0.085}
{"Mutation Id": "C24V", "Test Readout": "abundance fitness", "Meas Value": -0.979}
